# protocol_notes: Cmax in Sprague-Dawley rat at 20 mg/kg, iv administered as single bolus dose by HPLC-MS/MS analysis
# Assay type: ADME, organism-based
# Set-up: dose 20 mg/kg, route intravenous
# assay_context: in vivo
measured_endpoint: Cmax (µg/mL)
Please reply with the bare figure in µg/mL and do not write the unit itself.

Cmax reading for "O=C(Nc1ccc(CP(=O)(O)O)cc1)C1CCN(C(=O)OCc2cc(Cl)cc(Cl)c2)CC1" : 200

----------
# target_desc: Autotaxin (Homo sapiens, UniProt Q13822)
# protocol_notes: Inhibition of human ENPP2 using bis-pNPP as substrate measured every 10 secs for 10 mins by spectrophotometric assay
// reported pIC50 per item
Please note pIC50 is a logarithmic value: minus log10 of concentration in mol/L. Answer with that number alone.

Reference set (2 entries):
[
  {
    "compound": "NS(=O)(=O)Nc1ccc(NC(=O)C2CCN(C(=O)OCc3cc(Cl)cc(Cl)c3)CC2)cc1",
    "pIC50": 6.60
  },
  {
    "compound": "O=C(Nc1ccc(CP(=O)(O)O)cc1)C1CCN(C(=O)OCc2cccc(Cl)c2)CC1",
    "pIC50": 7.40
  }
]

pIC50 reading for "O=C(Nc1nc(CP(=O)(O)O)cs1)C1CCN(C(=O)OCc2cc(Cl)cc(Cl)c2)CC1" : 7.58

pIC50 reading for O=C(NC1CCN(C(=O)OCc2cc(Cl)cc(Cl)c2)C1)c1nc(CP(=O)(O)O)cs1 (centres undefined) : 7.26

----------
# protocol_notes: Metabolic stability in Sprague-Dawley rat liver microsomes assessed as parent compound remaining at 5 uM preincubated for 10 mins followed by NADPH addition measured after 60 mins by LC-MS/MS analysis
# Type: ADME, microsome
# assay_context: read-out: Stability
measured_endpoint: remaining at 1 h, 5 µM

remaining at 1 h, 5 µM reading for "O=C(Nc1ccc(CP(=O)(O)O)cc1)C1CCN(C(=O)OCc2cc(Cl)cc(Cl)c2)CC1" : > 99.9%

----------
# target_desc: Autotaxin (Homo sapiens)
# protocol_notes: Inhibition of human ENPP2 using FS3 as substrate measured every 5 mins for 30 mins by fluorescence assay
measured_endpoint: log10(IC50) (log10 of the value in nM)
Give log10 of IC50, with IC50 taken in nM.

[
  {
    "structure_smiles_string": "O=C(NO)c1ccc(NC(=O)C2CCN(C(=O)OCc3cc(Cl)cc(Cl)c3)CC2)cc1",
    "measured_endpoint": "log10(IC50)",
    "measured_value": 1.27
  },
  {
    "structure_smiles_string": "O=C(O)Cc1ccc(NC(=O)C2CCN(C(=O)OCc3cc(Cl)cc(Cl)c3)CC2)cc1",
    "measured_endpoint": "log10(IC50)",
    "measured_value": 0.93
  }
]

log10(IC50) reading for "NS(=O)(=O)Cc1ccc(NC(=O)C2CCN(C(=O)OCc3cc(Cl)cc(Cl)c3)CC2)cc1" : 0.66

log10(IC50) reading for "O=C(Nc1ccc(CP(=O)(O)O)cc1)C1CCN(C(=O)OCc2ccccc2)CC1" : 0.86

log10(IC50) reading for "O=C(Nc1ccc(CP(=O)(O)O)cc1)C1CCN(C(=O)OCc2ccc(OC(F)(F)F)cc2)CC1" : 0.29

log10(IC50) reading for "O=C(Nc1ccc(CP(=O)(O)O)cc1)C1CCN(C(=O)OCc2ccccc2F)CC1" : 0.85

log10(IC50) reading for "NS(=O)(=O)Nc1ccc(NC(=O)C2CCN(C(=O)OCc3cc(Cl)cc(Cl)c3)CC2)cc1" : 0.95

log10(IC50) reading for "O=C(Nc1ccc(CP(=O)(O)O)cc1)C1CCN(C(=O)OCc2cc(Cl)cc(Cl)c2)CC1" : 0.09

log10(IC50) reading for "O=C(Nc1ccc(CP(=O)(O)O)cc1)C1CCN(C(=O)OCc2cccc(Cl)c2)CC1" : 0.25

----------
# protocol_notes: Half life in human liver microsomes at 5 uM preincubated for 10 mins followed by NADPH addition measured up to 60 mins by LC-MS/MS analysis
# Type: ADME, microsome
measured_endpoint: half-life at 5 µM

half-life at 5 µM reading for "O=C(Nc1ccc(CP(=O)(O)O)cc1)C1CCN(C(=O)OCc2cc(Cl)cc(Cl)c2)CC1" : > 1 h

----------
# protocol_notes: Clearance in Sprague-Dawley rat at 10 mg/kg, iv administered as single bolus dose by HPLC-MS/MS analysis
# Type: ADME, organism-based
# assay_context: in vivo
measured_endpoint: clearance (mL/min/kg)
Please reply with the bare figure in mL/min/kg and do not write the unit itself.

clearance reading for "O=C(Nc1ccc(CP(=O)(O)O)cc1)C1CCN(C(=O)OCc2cc(Cl)cc(Cl)c2)CC1" : 13.3

----------
# protocol_notes: Clearance in Sprague-Dawley rat at 2 mg/kg, iv administered as single bolus dose by HPLC-MS/MS analysis
# Format: ADME, organism-based
# assay_context: in vivo
measured_endpoint: clearance (mL/min/kg)
Please reply with the bare figure in mL/min/kg and do not write the unit itself.

clearance reading for "O=C(Nc1ccc(CP(=O)(O)O)cc1)C1CCN(C(=O)OCc2cc(Cl)cc(Cl)c2)CC1" : 11.3

----------
# protocol_notes: Tmax in Sprague-Dawley rat at 2 mg/kg, iv administered as single bolus dose by HPLC-MS/MS analysis
# Assay type: ADME, organism-based
# assay_context: in vivo
measured_endpoint: Tmax (min)
Please reply with the bare figure in min and do not write the unit itself.

Tmax reading for "O=C(Nc1ccc(CP(=O)(O)O)cc1)C1CCN(C(=O)OCc2cc(Cl)cc(Cl)c2)CC1" : 1.2

----------
# target_desc: Autotaxin (Homo sapiens, UniProt Q13822)
# protocol_notes: Inhibition of human ENPP2 using FS3 as substrate measured every 5 mins for 30 mins by fluorescence assay
measured_endpoint: pIC50
Please note pIC50 is a logarithmic value: minus log10 of concentration in mol/L. Answer with that number alone.

Reference set (4 entries):
[
  {
    "compound": "O=C(NC1CCN(C(=O)OCc2cc(Cl)cc(Cl)c2)C1)c1nc(CP(=O)(O)O)cs1 (stereo not given)",
    "pIC50": 8.43
  },
  {
    "compound": "O=C(Nc1nc(CP(=O)(O)O)cs1)C1CCN(C(=O)OCc2cc(Cl)cc(Cl)c2)CC1",
    "pIC50": 8.76
  },
  {
    "compound": "O=C(Nc1ccc(CP(=O)(O)O)cc1)C1CCN(C(=O)OCc2ccccc2Cl)CC1",
    "pIC50": 8.48
  },
  {
    "compound": "O=C(Nc1ccc(CP(=O)(O)O)cc1)C1CCN(C(=O)OCc2ccc(OC(F)(F)F)cc2F)CC1",
    "pIC50": 8.78
  }
]

API: the following record is the query input.
pIC50 reading for "O=C(NC1CCN(C(=O)OCc2cc(Cl)cc(Cl)c2)CC1)c1ccc(CP(=O)(O)O)cc1" : 8.87

----------
# target_desc: Autotaxin (Homo sapiens, UniProt Q13822)
# protocol_notes: Inhibition of human ENPP2 using bis-pNPP as substrate measured every 10 secs for 10 mins by spectrophotometric assay
measured_endpoint: pIC50
Please note pIC50 is a logarithmic value: minus log10 of concentration in mol/L. Answer with that number alone.

Reference set (8 entries):
[
  {
    "structure_smiles_string": "O=C(Nc1ccc(CP(=O)(O)O)cc1)C1CCN(C(=O)OCc2ccccc2F)CC1",
    "measured_endpoint": "pIC50",
    "measured_value": 6.34
  },
  {
    "structure_smiles_string": "O=C(Nc1ccc(CP(=O)(O)O)cc1)C1CCN(C(=O)OCc2cc(Cl)cc(Cl)c2)CC1",
    "measured_endpoint": "pIC50",
    "measured_value": 8.66
  },
  {
    "structure_smiles_string": "O=C(Nc1ccc(CP(=O)(O)O)cc1)C1CCN(C(=O)OCc2ccc(OC(F)(F)F)cc2F)CC1",
    "measured_endpoint": "pIC50",
    "measured_value": 8.56
  },
  {
    "structure_smiles_string": "O=C(Nc1ccc(CP(=O)(O)O)cc1)C1CCN(C(=O)OCc2ccccc2Cl)CC1",
    "measured_endpoint": "pIC50",
    "measured_value": 6.67
  },
  {
    "structure_smiles_string": "O=C(O)Cc1ccc(NC(=O)C2CCN(C(=O)OCc3cc(Cl)cc(Cl)c3)CC2)cc1",
    "measured_endpoint": "pIC50",
    "measured_value": 6.36
  },
  {
    "structure_smiles_string": "O=C(NC1CCN(C(=O)OCc2cc(Cl)cc(Cl)c2)CC1)c1ccc(CP(=O)(O)O)cc1",
    "measured_endpoint": "pIC50",
    "measured_value": 8.28
  },
  {
    "structure_smiles_string": "O=C(NO)c1ccc(NC(=O)C2CCN(C(=O)OCc3cc(Cl)cc(Cl)c3)CC2)cc1",
    "measured_endpoint": "pIC50",
    "measured_value": 6.30
  },
  {
    "structure_smiles_string": "O=C(Nc1ccc(CP(=O)(O)O)cc1)C1CCN(C(=O)OCc2ccc(OC(F)(F)F)cc2)CC1",
    "measured_endpoint": "pIC50",
    "measured_value": 8.51
  }
]

pIC50 reading for "NS(=O)(=O)Cc1ccc(NC(=O)C2CCN(C(=O)OCc3cc(Cl)cc(Cl)c3)CC2)cc1" : 7.13

pIC50 reading for "O=C(Nc1ccc(CP(=O)(O)O)cc1)C1CCN(C(=O)OCc2ccccc2)CC1" : 6.59

# credit: ChEMBL document CHEMBL4196035
